# measurement.notes: Freeze-thaw stability in spiked pooled human plasma
# Format: physicochemical
# condition.summary: validation standard 2xLLOV
The following molecules are shown together with reported Freeze-Thaw Accuracy [%] values.
observation.type: Freeze-Thaw Accuracy [%] (%)

>>> test_result("COc1cc(N2CCC(N3CCN(C)CC3)CC2)ccc1Nc1ncc(Cl)c(Nc2ccccc2P(C)(C)=O)n1")
98.7
>>> test_result("CCN(CC)CCNC(=O)c1c(C)[nH]c(/C=C2\\C(=O)Nc3ccc(F)cc32)c1C")
102.8
>>> test_result("CCc1cc2c(cc1N1CCC(N3CCOCC3)CC1)C(C)(C)c1[nH]c3cc(C#N)ccc3c1C2=O")
100.0

====

# measurement.notes: Long-term stability in spiked pooled human plasma
# condition.summary: validation standard ULOV
The following compounds are shown together with reported Long-term stability, 2 month, -80°C Accuracy [%] values.
observation.type: Long-term stability, 2 month, -80°C Accuracy [%] (%)

>>> test_result("Nc1cccc2c1C(=O)N(C1CCC(=O)NC1=O)C2=O (centres unmarked) [Pomalidomide]")
99.0
>>> test_result("CCN1CCN(Cc2ccc(Nc3ncc(F)c(-c4cc(F)c5nc(C)n(C(C)C)c5c4)n3)nc2)CC1")
105.1
>>> test_result("C[C@H]1Oc2cc(cnc2N)-c2c(nn(C)c2C#N)CN(C)C(=O)c2ccc(F)cc21")
91.7
>>> test_result("CC(C)(C)c1nc(-c2cccc(NS(=O)(=O)c3c(F)cccc3F)c2F)c(-c2ccnc(N)n2)s1")
98.0
>>> test_result("Nc1cccc2c1CN(C1CCC(=O)NC1=O)C2=O (centres unmarked) [Lenalidomide]")
98.8
>>> test_result("CNCc1ccc(-c2[nH]c3cc(F)cc4c3c2CCNC4=O)cc1")
102.7
>>> test_result("CNC(=O)c1cc(Oc2ccc(NC(=O)Nc3ccc(Cl)c(C(F)(F)F)c3)cc2)ccn1")
114.3
>>> test_result("CN(C)C(=O)c1cc2cnc(Nc3ccc(N4CCNCC4)cn3)nc2n1C1CCCC1")
98.8
>>> test_result("O=C(Nc1cnn2ccc(N3CCC[C@@H]3c3cc(F)ccc3F)nc12)N1CC[C@H](O)C1")
104.6
>>> test_result("CC1(C)CCC(CN2CCN(c3ccc(C(=O)NS(=O)(=O)c4ccc(NCC5CCOCC5)c([N+](=O)[O-])c4)c(Oc4cnc5[nH]ccc5c4)c3)CC2)=C(c2ccc(Cl)cc2)C1")
114.0
>>> test_result("CNC(=O)c1cc(Oc2ccc(NC(=O)Nc3ccc(Cl)c(C(F)(F)F)c3)c(F)c2)ccn1")
107.0
>>> test_result("N#CC[C@H](C1CCCC1)n1cc(-c2ncnc3[nH]ccc23)cn1")
95.8
>>> test_result("Cn1cnc2c(F)c(Nc3ccc(Br)cc3F)c(C(=O)NOCCO)cc21")
101.1
>>> test_result("CNC(=O)c1ccc(N2C(=S)N(c3ccc(C#N)c(C(F)(F)F)c3)C(=O)C2(C)C)cc1F [Enzalutamide]")
90.3
>>> test_result("COc1cc(N2CCC(N3CCN(C)CC3)CC2)ccc1Nc1ncc(Cl)c(Nc2ccccc2P(C)(C)=O)n1")
108.0
>>> test_result("C[C@@H](Oc1cc(-c2cnn(C3CCNCC3)c2)cnc1N)c1c(Cl)ccc(F)c1Cl")
89.2
>>> test_result("Cc1ccc(Nc2nccc(N(C)c3ccc4c(C)n(C)nc4c3)n2)cc1S(N)(=O)=O")
98.3
>>> test_result("O=C1CN2Cc3c(ccc(Cl)c3Cl)N=C2N1 [Anagrelide]")
99.2
>>> test_result("CCC1=C[C@@H]2CN(C1)Cc1c([nH]c3ccccc13)[C@@](C(=O)OC)(c1cc3c(cc1OC)N(C)[C@H]1[C@@](O)(C(=O)OC)[C@H](OC(C)=O)[C@]4(CC)C=CCN5CC[C@]31[C@@H]54)C2")
99.6
>>> test_result("O=c1[nH]c(=O)n([C@H]2C[C@H](O)[C@@H](CO)O2)cc1C(F)(F)F")
95.5
>>> test_result("CNC(=O)c1ccc(N2C(=S)N(c3cnc(C#N)c(C(F)(F)F)c3)C(=O)C23CCC3)cc1F [Apalutamide]")
95.9
>>> test_result("O=C1CCC(N2C(=O)c3ccccc3C2=O)C(=O)N1 (centres unmarked) [Thalidomide]")
79.5
>>> test_result("CNC(=O)c1ccccc1Sc1ccc2c(/C=C/c3ccccn3)n[nH]c2c1")
91.3
